Below: a set of entries, each annotated with reported GI50.
- System: HOP-18
- ASSAY: NCI tumour cell line growth inhibition, 48 h
Active and inactive are the calls of the source. Cut-off read from the data, not from the text of the source: active = GI50 up to about 1.1 µM and inactive = higher.

COMPOUND	GI50
CCc1ccccc1-n1c2nc(=O)n(C)c(=O)c-2nc2ccccc21	11.9 µM (inactive)
O=S1(=O)c2ccccc2NC(c2ccc3ccccc3c2)CC1c1ccccc1F (configuration not stated)	22.1 µM (inactive)
N#CC1C[C@@H]2CC3(CCC2CN1C(=O)c1ccccc1)OCCO3 (some centres not stated)	> 100 µM (inactive)
C[N+](C)(C)CC1CCC(C[N+](C)(C)C)C1=NO (configuration not stated)	> 100 µM (inactive)
CN(C)NC(=S)NC12CC3CC(CC(C3)C1)C2	> 100 µM (inactive)
O=c1oc2c(O)c(O)c(O)c3c(=O)oc4c(O)c(O)cc1c4c23 [FLAVELLAGIC ACID]	> 100 µM (inactive)

Now let's try a different one.
Reported GI50 for `COc1cccc(C=O)c1[O-].COc1cccc(C=O)c1[O-].[Zn+2]` : what is it?
40.9 µM (inactive)

* * *

- Test system: SF-295
- ASSAY: NCI tumour cell line growth inhibition, 48 h
The source made the active and inactive calls. No stated cut-off is given here; in the data, active = GI50 up to about 1.1 µM and inactive = higher.
Measured GI50, listed per entry.

As a guide, the following entries are already answered.
COMPOUND	METRIC	RESULT
O=c1c2ccccc2nc2n1C(c1ccc([N+](=O)[O-])cc1)C2(c1ccccc1)c1ccccc1 (stereo not given)	GI50	> 100 µM (inactive)
CC(C)(C)C(=O)N1C(C(=O)O)Cc2ccccc2[C@@H]1Cc1ccccc1 (stereo not given in full)	GI50	> 100 µM (inactive)

So what's the measured GI50 for this one? `O=[N+]([O-])C(C(Cl)=C(Cl)Cl)=C(N(Cc1ccccc1)Cc1ccccc1)N(Cc1ccccc1)Cc1ccccc1`
27.9 µM (inactive)

// lookup GI50 for `CN(CCc1ccc(Cl)c(Cl)c1)CCN(C)CCN1CCCC1`
16.5 µM (inactive)

Recorded GI50 for N#CC1(C#N)C(c2ccccc2)NC23CCCCC2C1(C#N)C(=O)N3 (stereo not given) , please?
> 100 µM (inactive)

* * *

- System: COLO 205
- ASSAY: NCI tumour cell line growth inhibition, 48 h
The source made the active and inactive calls. Cut-off read from the data, not from the text of the source: active = GI50 up to about 1.1 µM and inactive = higher.
Entry note: the call must match one of active, inactive

MOLECULE	EXPERIMENTAL TARGET	LABEL CLASS
C[C@@H]1C(=O)O[C@@H]2C[C@@]1(C)[C@@H]1C(=O)C3(O)OC14C2(C)OC(=O)[C@@]4(O)CCC1C3C(O)C=C2CC=CC(=O)[C@@]21C (stereo partly specified)	COLO 205	inactive
Cc1nc(C(N)=S)sc1C(=O)/C=C/c1c(O)ccc2ccccc12	COLO 205	inactive
O=C1CCCCC1C1(O)C(=O)Nc2cc(F)ccc21 (stereo unspecified)	COLO 205	inactive
CC[As](CC)SCC1OC(OC(C)=O)C(OC(C)=O)C(OC(C)=O)C1OC(C)=O (stereo unspecified)	COLO 205	inactive
Clc1ccc(/C=C/c2nc(-c3ccccc3)cn3c2nc2ccccc23)cc1Cl	COLO 205	inactive
S=C(NCc1ccccc1)N/N=C/c1ccccn1	COLO 205	active

Then there is this molecule:
Hey, what did the test say about CC(C)[C@@H]1CC[C@@H](C)C[C@H]1OC(=O)/C=C1\C(C(=O)O[C@@H]2C[C@H](C)CC[C@H]2C(C)C)[C@H]2C=C[C@@H]1O2 (stereo partly specified) ?
inactive
